Recorded values, source patent US20240279281A1.

- target.of.assay: T1, interleukin-23 receptor (IL-23R), Q5VWK5
- T1 chain: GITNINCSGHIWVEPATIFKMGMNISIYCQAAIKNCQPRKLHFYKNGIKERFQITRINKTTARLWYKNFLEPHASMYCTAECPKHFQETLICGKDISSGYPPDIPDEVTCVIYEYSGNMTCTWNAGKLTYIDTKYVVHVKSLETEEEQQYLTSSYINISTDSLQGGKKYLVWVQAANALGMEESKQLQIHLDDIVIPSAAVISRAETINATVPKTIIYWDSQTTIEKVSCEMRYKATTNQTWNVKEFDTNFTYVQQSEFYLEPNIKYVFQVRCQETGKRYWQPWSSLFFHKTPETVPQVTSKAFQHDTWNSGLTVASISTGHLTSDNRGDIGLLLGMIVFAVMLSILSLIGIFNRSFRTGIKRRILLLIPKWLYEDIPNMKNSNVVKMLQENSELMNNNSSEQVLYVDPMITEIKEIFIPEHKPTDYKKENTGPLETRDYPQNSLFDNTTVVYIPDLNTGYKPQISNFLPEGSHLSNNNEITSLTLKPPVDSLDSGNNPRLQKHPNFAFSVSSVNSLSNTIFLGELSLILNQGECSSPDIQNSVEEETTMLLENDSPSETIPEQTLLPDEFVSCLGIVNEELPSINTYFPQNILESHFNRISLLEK
- test.description: cell-based or functional assay
Starred links: 1 amine or outer side, 2 acyl side, 3 side chain; linkers in the order of their positions; H or OH if unused. Positions of bridges follow the written chain, without caps; N, C: chain ends. Non-standard residues stand in square brackets, D forms with d. No end group written: not given here. X1 = 3‑(7-(3-acetamidophenyl)-1H-indol-3-yl)‑2‑aminopropanoic acid, CC(=O)Nc1cccc(-c2cccc3c(CC(N[*:1])C(=O)[*:2])c[nH]c23)c1; X10 = 2‑amino‑3‑(4-(2-guanidinoethoxy)phenyl)propanoic acid, N=C(N)NCCOc1ccc(CC(N[*:1])C(=O)[*:2])cc1; 2Nal(6-OH) = N[C@@H](Cc1ccc2cc(O)ccc2c1)C(=O)O; Trp(7-Me) = Cc1cccc2c(C[C@H](N)C(=O)O)c[nH]c12; AEF = NCCOc1ccc(C[C@H](N)C(=O)O)cc1; 3Pal = N[C@@H](Cc1cccnc1)C(=O)O; Pen = CC(C)(S)[C@H](N)C(=O)O; lipid = not defined here; Thp = NC1(C(=O)O)CCOCC1; Sar = CNCC(=O)O
Listed here are binders together with their documented PBMC pSTAT3 IC50.

Past entries and their recorded results:
binder	PBMC pSTAT3 IC50
K(lipid)[Pen]NT[Trp(7-Me)]K(Ac)[Pen][2‑amino‑3‑(4-(2-aminoethoxy)phenyl)propanoic acid][2‑amino‑3‑(6-hydroxynaphthalen-2-yl)propanoic acid][Thp]K(Ac)N[3Pal][Sar] (disulfide 2-7 (inferred); ends not checked; also: Lys1 lipidated, lipid not given here) [SEQ ID NO: 216]	< 0.1 nM
R[Pen]NT[Trp(7-Me)]K(Ac)[Pen][2‑amino‑3‑(4-(2-aminoethoxy)phenyl)propanoic acid][2‑amino‑3‑(6-hydroxynaphthalen-2-yl)propanoic acid][Thp]ENA[Sar] (not fully specified (bridges); ends and bridges not checked) [SEQ ID NO: 429]	> 1 nM
R[Pen]NT[Trp(7-Me)]K(Ac)[Pen][2‑amino‑3‑(4-(2-aminoethoxy)phenyl)propanoic acid][2‑amino‑3‑(6-hydroxynaphthalen-2-yl)propanoic acid][Thp]K(Ac)N[3Pal][Sar]K (disulfide 2-7 (inferred); not fully specified (residue 15); ends not checked; also: K15: lipidated lysine, lipid not given here) [SEQ ID NO: 255]	< 1 nM
[Pen]NT[X1]K(Ac)[Pen][X10][2‑amino‑3‑(6-hydroxynaphthalen-2-yl)propanoic acid][Thp]EN[3Pal][Sar] (ends and bridges not checked) [SEQ ID NO: 9]	> 1 nM
R[Pen]NT[Trp(7-Me)]K(Ac)[Pen][2‑amino‑3‑(4-(2-aminoethoxy)phenyl)propanoic acid][2‑amino‑3‑(6-hydroxynaphthalen-2-yl)propanoic acid][Thp]EN[3Pal][Sar]K (disulfide 2-7 (inferred); not fully specified (residue 15); ends not checked; also: K15: lipidated lysine) [SEQ ID NO: 269]	< 1 nM

// moving on: another record for PBMC pSTAT3 IC50
Field request: PBMC pSTAT3 IC50 | item: R[Pen]ET[Trp(7-Me)]K(Ac)[Pen][AEF][2Nal(6-OH)][Thp]EN[3Pal][Sar] (disulfide 2-7 (inferred); ends not checked) [SEQ ID NO: 137]
< 10 pM
